This listing pairs compounds with measured MIC.
# System: Bbifi-1
# TEST NAME: Antibiotic susceptibility test, broth dilution MIC
# Type: cell-based, Bifidobacterium bifidum
# CONDITION SET: Bifidobacterium bifidum; broth dilution, anaerobic, 37° C., 46-48 h; read-out: MIC against Bbifi-1
# value in µg/mL; strip the unit string

Example compounds with recorded MIC:
| STRUCTURE AS SMILES | MEASURED TARGET | UNIT STRING | MIC |
| --- | --- | --- | --- |
| [H]/N=C(/N)N[C@H]1[C@H](O)[C@@H](O)[C@H](O[C@@H]2O[C@@H](C)[C@](O)(C=O)[C@H]2O[C@@H]2O[C@@H](CO)[C@H](O)[C@@H](O)[C@@H]2NC)[C@@H](N/C(N)=N\[H])[C@@H]1O | Bbifi-1 | µg/mL | 128 |
| CN(C)[C@@H]1C(O)=C(C(N)=O)C(=O)[C@@]2(O)C(O)=C3C(=O)c4c(O)cccc4[C@@](C)(O)[C@H]3C[C@@H]12 | Bbifi-1 | µg/mL | 0.125 |
| CCC[C@@H]1C[C@@H](C(=O)N[C@@H]([C@H]2O[C@H](SC)[C@H](O)[C@@H](O)[C@H]2O)[C@H](C)Cl)N(C)C1 | Bbifi-1 | µg/mL | 1 |
| CC[C@H]1OC(=O)[C@H](C)[C@@H](O[C@H]2C[C@@](C)(OC)[C@@H](O)[C@H](C)O2)[C@H](C)[C@@H](O[C@@H]2O[C@H](C)C[C@H](N(C)C)[C@H]2O)[C@](C)(O)C[C@@H](C)C(=O)[C@H](C)[C@@H](O)[C@]1(C)O | Bbifi-1 | µg/mL | 0.125 |

For reference, reported MIC for CC1(C)S[C@@H]2[C@H](NC(=O)[C@H](N)c3ccccc3)C(=O)N2[C@H]1C(=O)O stands at 0.25

For reference, reported MIC for O=C(N[C@H](CO)[C@H](O)c1ccc([N+](=O)[O-])cc1)C(Cl)Cl stands at 8
